- TESTED ON: D(2) dopamine receptor (Bos taurus)
- Sequence (P20288 whole entry): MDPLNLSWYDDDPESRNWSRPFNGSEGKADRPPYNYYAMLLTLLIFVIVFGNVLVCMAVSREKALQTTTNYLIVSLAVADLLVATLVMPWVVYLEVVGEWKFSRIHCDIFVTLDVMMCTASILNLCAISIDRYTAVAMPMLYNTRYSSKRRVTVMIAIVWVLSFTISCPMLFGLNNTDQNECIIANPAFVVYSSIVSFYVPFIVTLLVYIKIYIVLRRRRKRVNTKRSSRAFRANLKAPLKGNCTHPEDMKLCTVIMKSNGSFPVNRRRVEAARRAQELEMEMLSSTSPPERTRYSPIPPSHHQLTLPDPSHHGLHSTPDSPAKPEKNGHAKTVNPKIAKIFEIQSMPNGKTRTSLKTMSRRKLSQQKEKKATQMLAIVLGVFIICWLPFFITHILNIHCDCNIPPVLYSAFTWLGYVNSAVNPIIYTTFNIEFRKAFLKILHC
- EXPERIMENT NOTES: Low percent binding affinity for different states of the Dopamine D-2 receptor in bovine anterior pituitary membranes, using radioligand [3H]spiroperidol
- Assay type: cell membranes
// reported Low per item
State just the number; it will be interpreted in %.

Worked set:
{"columns": ["MOLECULE SMILES", "RECORDED NUMBER"],
 "data": [
  ["CCCN1C[C@H](CSC)C[C@@H]2c3ccc(O)c(O)c3CC[C@H]21", 100],
  ["CCCN1C[C@H](CC#N)C[C@@H]2c3cccc(O)c3CC[C@H]21", 100],
  ["CCCN1C[C@H](CC#N)C[C@@H]2c3cc(O)ccc3CC[C@H]21", 70]
]}

// field: Low; key: NCCc1ccc(O)c(O)c1 ; value = 69

// field: Low; key: CCCN1C[C@H](C)C[C@@H]2c3cc(O)ccc3CC[C@H]21 ; value = 87

// field: Low; key: CCCN1C[C@H](CC#N)C[C@@H]2c3ccc(O)c(O)c3CC[C@H]21 ; value = 100

###

// reported Ki per item
- TESTED ON: UniProtKB P20288
- EXPERIMENT NOTES: High binding affinity for dopamine D-2 receptor from bovine anterior pituitary membrane, using radioligand [3H]spiroperidol in bovine anterior pituitary membranes
- Assay type: cell membranes
State just the number; it will be interpreted in nM.

{"columns": ["MOLECULE SMILES", "Ki [nM]"],
 "data": [
  ["CCCN1C[C@H](CC#N)C[C@@H]2c3cc(O)ccc3CC[C@H]21", 4]
]}

Below: the item to evaluate.
// field: Ki; key: CCCN1C[C@H](CSC)C[C@@H]2c3cc(O)ccc3CC[C@H]21 ; value = 14

###

- TESTED ON: D(2) dopamine receptor (Bos taurus) (UniProt P20288)
- Sequence (P20288 whole entry): as above
- EXPERIMENT NOTES: Low percent binding affinity for different states of the Dopamine D-2 receptor in bovine anterior pituitary membranes, using radioligand [3H]spiroperidol
- Assay type: cell membranes
OBSERVED PROPERTY: Low (%)
State just the number; it will be interpreted in %.

{"columns": ["MOLECULE SMILES", "UNIT ABBREVIATION", "Low"],
 "data": [
  ["CCCN1C[C@H](CSC)C[C@@H]2c3cc(O)c(O)cc3CC[C@H]21", "%", 67],
  ["CCCN1C[C@H](CC#N)C[C@@H]2c3cc(O)c(O)cc3CC[C@H]21", "%", 56],
  ["CCCN1C[C@H](C)C[C@@H]2c3cccc(O)c3CC[C@H]21", "%", 100]
]}

Below: the item to evaluate.
// field: Low; key: CCCN1C[C@H](CSC)C[C@@H]2c3cc(O)ccc3CC[C@H]21 ; value = 79

###

- TESTED ON: UniProt:P20288
- EXPERIMENT NOTES: High binding affinity for dopamine D-2 receptor from bovine anterior pituitary membrane, using radioligand [3H]spiroperidol
// reported Ki per item
State just the number; it will be interpreted in nM.

{"columns": ["MOLECULE SMILES", "UNIT ABBREVIATION", "Ki"],
 "data": [
  ["CCCN1C[C@H](CC#N)C[C@@H]2c3cc(O)c(O)cc3CC[C@H]21", "nM", 6]
]}

Below: the item to evaluate.
Ki of CCCN1C[C@H](C)C[C@@H]2c3cc(O)ccc3CC[C@H]21 , assay on UniProt:P20288, is 8

###

- TESTED ON: D(2) dopamine receptor (Bos taurus)
- EXPERIMENT NOTES: Low binding affinity for dopamine D-2 receptor from bovine anterior pituitary membrane, using radioligand [3H]spiroperidol
OBSERVED PROPERTY: pKi
Answer as the number alone; pKi is minus log10 of concentration in mol/L.

Worked set:
{"columns": ["MOLECULE SMILES", "TESTED ON", "RECORDED NUMBER"],
 "data": [
  ["CCCN1C[C@H](C)C[C@@H]2c3cc(O)ccc3CC[C@H]21", "D(2) dopamine receptor (Bos taurus)", 5.71],
  ["CCCN1C[C@H](CC#N)C[C@@H]2c3ccc(O)c(O)c3CC[C@H]21", "D(2) dopamine receptor (Bos taurus)", 5.84],
  ["CCCN1C[C@H](CSC)C[C@@H]2c3ccc(O)c(O)c3CC[C@H]21", "D(2) dopamine receptor (Bos taurus)", 5.76]
]}

Below: the item to evaluate.
// field: pKi; key: CCCN1C[C@H](CC#N)C[C@@H]2c3cc(O)c(O)cc3CC[C@H]21 ; value = 6.44
